Tested on: 922993-354-T-J3-PDC complex spheroids, viability, % test/control
test_name: Anticancer human tumor 922993-354-T-J3-PDC patient-derived endometrial carcinoma cell line growth inhibition [CLK]
experimental_context: second compound 0.1 µM; first compound 0.00949 µM; hits give low values
Exercise: state measured viability, T/C for each of the compounds provided.
Numbers only, in %.

compound="NC(=O)C(=Cn1cnc(-c2cc(C(F)(F)F)cc(C(F)(F)F)c2)n1)c1cncnc1 + CNC(=O)c1ccc(Nc2nc(OC3CCCC3)c3c(-c4ccc5nc(C)oc5c4)c[nH]c3n2)c(OC)c1" measurement_type="viability, T/C" value_unit=% measured_number=107
compound="C=CC(=O)Nc1cc(Nc2nccc(-c3cn(C)c4ccccc34)n2)c(OC)cc1N(C)CCN(C)C + CN1CCN(c2cc(C(=O)Nc3cc4cc(-c5cnn(C)c5)ccc4cn3)ccn2)CC1" measurement_type="viability, T/C" value_unit=% measured_number=83.7
compound="NC(=O)C(=Cn1cnc(-c2cc(C(F)(F)F)cc(C(F)(F)F)c2)n1)c1cncnc1 + CN1CCN(c2cc(C(=O)Nc3cc4cc(-c5cnn(C)c5)ccc4cn3)ccn2)CC1" measurement_type="viability, T/C" value_unit=% measured_number=118
compound="CC(C)CC(NC(=O)C(Cc1ccccc1)NC(=O)c1cnccn1)B(O)O (stereo unspecified) + CNC(=O)c1ccc(Nc2nc(OC3CCCC3)c3c(-c4ccc5nc(C)oc5c4)c[nH]c3n2)c(OC)c1" measurement_type="viability, T/C" value_unit=% measured_number=57.2
compound="CC(C)CC(NC(=O)C(Cc1ccccc1)NC(=O)c1cnccn1)B(O)O (stereo unspecified) + CN1CCN(c2cc(C(=O)Nc3cc4cc(-c5cnn(C)c5)ccc4cn3)ccn2)CC1" measurement_type="viability, T/C" value_unit=% measured_number=40.2

Here's the next entry for you.
Give the measured viability, T/C for C=CC(=O)Nc1cc(Nc2nccc(-c3cn(C)c4ccccc34)n2)c(OC)cc1N(C)CCN(C)C + CNC(=O)c1ccc(Nc2nc(OC3CCCC3)c3c(-c4ccc5nc(C)oc5c4)c[nH]c3n2)c(OC)c1
96.4

###

System: 922993-354-T-J3-PDC complex spheroids, viability, % test/control
test_name: Anticancer human tumor 922993-354-T-J3-PDC cell line growth inhibition [CLK];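 note: spheroids exposed to the agents for 7 days before readout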
experimental_context: second compound 0.1 µM; first compound 1 µM; hits give low values
Exercise: state measured viability, T/C for each of the molecules provided.
One number for each entry, in %.

molecule="COc1cccc2c1C(=O)c1c(O)c3c(c(O)c1C2=O)CC(O)(C(=O)CO)CC3OC1CC(N)C(O)C(C)O1 (stereo not drawn) + CN1CCN(c2cc(C(=O)Nc3cc4cc(-c5cnn(C)c5)ccc4cn3)ccn2)CC1" measured_number=65
molecule="O=c1[nH]cc(F)c(=O)[nH]1 + CN1CCN(c2cc(C(=O)Nc3cc4cc(-c5cnn(C)c5)ccc4cn3)ccn2)CC1" measured_number=80.5

Here's the next entry for you.
# assay system 922993-354-T-J3-PDC complex spheroids, viability, % test/control: give viability, T/C of Nc1ccn(C2OC(CO)C(O)C2(F)F)c(=O)n1 (stereo not drawn) + CNC(=O)c1ccc(Nc2nc(OC3CCCC3)c3c(-c4ccc5nc(C)oc5c4)c[nH]c3n2)c(OC)c1
14.9

###

System: 922993-354-T-J3-PDC complex spheroids, viability, % test/control
test_name: Anticancer human tumor 922993-354-T-J3-PDC cell line growth inhibition [CLK]; active = viability on the fitted dose curve at most 10% of control; inactive = the rest;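 note: spheroids exposed to the agents for 7 days before readout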
experimental_context: second compound 1 µM; first compound 0.03 µM
Return exactly one item of true (1) for active, false (0) for inactive

compound="NC(=O)C(=Cn1cnc(-c2cc(C(F)(F)F)cc(C(F)(F)F)c2)n1)c1cncnc1 + CNC(=O)c1ccc(Nc2nc(OC3CCCC3)c3c(-c4ccc5nc(C)oc5c4)c[nH]c3n2)c(OC)c1" system_tested="922993-354-T-J3-PDC complex spheroids, viability, % test/control" label_class="false (0)"
compound="CC(C)CC(NC(=O)C(Cc1ccccc1)NC(=O)c1cnccn1)B(O)O (stereo not drawn) + CN1CCN(c2cc(C(=O)Nc3cc4cc(-c5cnn(C)c5)ccc4cn3)ccn2)CC1" system_tested="922993-354-T-J3-PDC complex spheroids, viability, % test/control" label_class="true (1)"

Consider the record given below.
Which result was noted for this compound in the test: NC(=O)C(=Cn1cnc(-c2cc(C(F)(F)F)cc(C(F)(F)F)c2)n1)c1cncnc1 + CN1CCN(c2cc(C(=O)Nc3cc4cc(-c5cnn(C)c5)ccc4cn3)ccn2)CC1
true (1)
